Tested on: human IBAT (Homo sapiens, UniProt Q12908)
Construct: expressed in transfected cells; host or cells: Baby hamster kidney (BHK) cells, clone H14
Assay comment: In vitro assay of IBAT-mediated uptake of [14C]-taurocholate (TC) in H14 cells
Format: cell-based
Test context: Table 6; read-out: TC-uptake (H14 cells) IC(50)

Record smiles: CCCC[C@]1(CC)CS(=O)(=O)c2ccccc2[C@@H](c2ccccc2)[C@H]1O
Output unit: nM
IC50: 600
//
Record smiles: CCCC[C@]1(CC)CS(=O)(=O)c2ccc(NO)cc2[C@@H](c2ccccc2)[C@H]1O
Output unit: nM
IC50: 300
//
Record smiles: CCCC[C@]1(CC)CS(=O)(=O)c2ccc(OC)cc2[C@@H](c2ccccc2)[C@H]1O
Output unit: nM
IC50: 100
//
Record smiles: CCCC[C@]1(CC)CS(=O)(=O)c2cc(OC)ccc2[C@@H](c2ccccc2)[C@H]1O
Output unit: nM
IC50: 100

====

Tested on: human IBAT (Homo sapiens)
Construct: expressed in transfected cells; host or cells: Baby hamster kidney (BHK) cells, clone H14
Sequence (Q12908 1-348): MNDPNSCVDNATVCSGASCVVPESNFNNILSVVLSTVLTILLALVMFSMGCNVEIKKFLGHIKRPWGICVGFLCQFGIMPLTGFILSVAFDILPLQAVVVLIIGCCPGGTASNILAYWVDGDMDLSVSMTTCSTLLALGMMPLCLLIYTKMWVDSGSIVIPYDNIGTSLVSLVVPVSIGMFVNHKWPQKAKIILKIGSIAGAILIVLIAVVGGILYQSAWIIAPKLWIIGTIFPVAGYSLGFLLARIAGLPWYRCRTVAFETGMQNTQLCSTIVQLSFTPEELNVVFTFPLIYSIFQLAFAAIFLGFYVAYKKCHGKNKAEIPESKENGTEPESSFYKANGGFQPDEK
Assay comment: In vitro assay of IBAT-mediated uptake of [14C]-taurocholate (TC) in H14 cells
Type: cell-based
Test context: read-out: Human TC IC50
pIC50: −log10 of the molar value.
If the reported pIC50 equals or exceeds 8, assign Satisfied. If not, assign Not satisfied.

Compound: CCCCC1(CCCC)CS(=O)(=O)c2ccc(N(C)C)cc2C(c2cccc(OCCOCCOCCI)c2)C1O (stereo not shown) [Example 1136]
Class: Not satisfied
//
Compound: CCCCC1(CCCC)CS(=O)(=O)c2c(F)cc(F)cc2C(c2ccccc2)C1O (stereo not shown) [Example 1186]
Class: Not satisfied
//
Compound: CCCCC1(CCCC)CS(=O)(=O)c2ccc(N(C)C)cc2C(c2ccccc2)C1O (stereo not shown) [Example 1162]
Class: Not satisfied
//
Compound: CCCCC1(CCCC)CS(=O)(=O)c2ccc(N(C)C)cc2C(c2cccc(OCCOCCOCC[n+]3cccc4ccc5ccccc5c43)c2)C1O (stereo not shown) [Example 1034]
Class: Satisfied
//
Compound: CCCCC1(CCCC)CS(=O)(=O)c2ccc(N(C)C)cc2C(c2ccc(OCCOCC[N+]3(C)CCCC3)c(F)c2)C1O (stereo not shown) [Example 1015]
Class: Satisfied
//
Compound: CCCCC1(CCCC)CS(=O)(=O)c2ccc(N(C)C)cc2C(c2cccc(C[N+](C)(C)CCN(C)C)c2)C1O (stereo not shown) [Example 1233]
Class: Not satisfied
//
Compound: CCCCC1(CCCC)CS(=O)(=O)c2ccc(N(C)C)cc2C(c2cccc(OCCOCCOCC[n+]3ccccc3)c2)C1O (stereo not shown) [Example 1355]
Class: Satisfied
//
Compound: CCCCC1(CC)CS(=O)(=O)c2ccc(F)cc2C(c2ccc(F)cc2)C1O (single isomer, unassigned) [Example 274]
Class: Not satisfied
//
Compound: CCCCC1(CCCC)CS(=O)(=O)c2ccc(N(C)C)cc2C(c2cccc(OCCOCCOCC[n+]3ccc(N(C)C)cc3)c2)C1O (stereo not shown) [Example 1009]
Class: Satisfied
//
Compound: CCCCC1(CC)CS(=O)(=O)c2ccc(F)cc2C(c2ccc(F)cc2)C1O (single isomer, unassigned) [Example 273]
Class: Not satisfied
//
Compound: CCCCC1(CC)CS(=O)(=O)c2ccc(N(C)C)cc2C(c2ccc(OC)c(F)c2)C1O (single isomer, unassigned) [Example 1151]
Class: Not satisfied
//
Compound: CCCCC1(CCCC)CS(=O)(=O)c2ccc(N(C)C)cc2C(c2cccc(OCCOCCOCC[P+](c3ccccc3)(c3ccccc3)c3ccccc3)c2)C1O (stereo not shown) [Example 1292]
Class: Not satisfied
//
Compound: CCCCC1(CCCC)CS(=O)(=O)c2ccc(N(C)C)cc2C(c2ccc(OCCOCCSCCN(CC)CC)c(F)c2)C1O (stereo not shown) [Example 1142]
Class: Not satisfied
//
Compound: CCCCC1(CC)CS(=O)(=O)c2ccc(N(C)C)cc2C(c2ccc(OC)cc2)C1O (stereo not shown) [Example 1089]
Class: Satisfied
